# experiment: Anticancer activity against human A549 cells measured after 48 hrs by SRB assay
# Type: functional, cell-based
# test_settings: A549, 48 h
Each item that follows carries a reported pIC50.
Scale explanation: pIC50 corresponds to minus log10 of a concentration expressed in moles per litre.

These solved cases illustrate the format of a correct answer.
compound: COc1ccc(-c2oc3c(OC)c(OC)cc(OCCCCCC(=O)N4CCN(C)CC4)c3c(=O)c2O)cc1
pIC50: 4.83
--
compound: CCN(CC)CCOc1cc(OC)c(OC)c2oc(-c3ccc(OC)cc3)c(O)c(=O)c12
pIC50: 4.86
--
compound: COc1ccc(-c2oc3c(OC)c(OC)cc(OCCN4CCCCC4)c3c(=O)c2O)cc1
pIC50: 4.99
--
compound: CCCCCN(C)C(=O)CCCCCOc1cc(OC)c(OC)c2oc(-c3ccc(OC)cc3)c(O)c(=O)c12
pIC50: 4.77
--
compound: CCCCN(C)C(=O)CCCCOc1cc(OC)c(OC)c2oc(-c3ccc(OC)cc3)c(O)c(=O)c12
pIC50: 4.78

input: // query pIC50 value for entry COc1ccc(-c2oc3c(OC)c(OC)cc(OCCN4CCCC4)c3c(=O)c2O)cc1
output: 4.95

input: Any idea what its pIC50 is? The compound is COc1ccc(-c2oc3c(OC)c(OC)cc(OCCN(C)C)c3c(=O)c2O)cc1
output: 5.14

input: Which pIC50 value is on record for CC/C(=C(\c1ccccc1)c1ccc(OCCN(C)C)cc1)c1ccccc1 ?
output: 4.76

input: # query: pIC50 of entry COc1ccc(-c2oc3c(OC)c(OC)cc(OC(C)CN(C)C)c3c(=O)c2O)cc1 (stereo not drawn)
output: 5.21

###

# experiment: Cytotoxicity against human THP1 cells by MTT assay
# Type: toxicity, cell-based, THP-1
Entries and their measured CC50 follow.
Entry rule: numbers only, all in µM.

Worked cases, answers included:
compound: CCCCN(C)C(=O)CCCCOc1cc(OC)c(OC)c2oc(-c3ccc(OC)cc3)c(O)c(=O)c12
unit_abbrev: µM
CC50: 200

compound: COc1ccc(-c2oc3c(OC)c(OC)cc(OCCN4CCCCC4)c3c(=O)c2O)cc1
unit_abbrev: µM
CC50: 100

compound: CCN(CC)CCOc1cc(OC)c(OC)c2oc(-c3ccc(OC)cc3)c(O)c(=O)c12
unit_abbrev: µM
CC50: 200

compound: COc1ccc(-c2oc3c(OC)c(OC)cc(OCCN(C)C)c3c(=O)c2O)cc1
unit_abbrev: µM
CC50: 200

compound: CCCCCN(C)C(=O)CCCCCOc1cc(OC)c(OC)c2oc(-c3ccc(OC)cc3)c(O)c(=O)c12
unit_abbrev: µM
CC50: 200

input: Reported CC50 for COc1ccc(-c2oc3c(OC)c(OC)cc(OCCCCCC(=O)N4CCN(C)CC4)c3c(=O)c2O)cc1 : what is it?
output: 50

input: # lookup: CC50 of COc1ccc(-c2oc3c(OC)c(OC)cc(OCCN4CCCC4)c3c(=O)c2O)cc1
output: 100

input: What does the data say about its CC50? Entry: COc1ccc(-c2oc3c(OC)c(OC)cc(OC(C)CN(C)C)c3c(=O)c2O)cc1 (stereo not drawn)
output: 100

Every entry's value here was drawn from ChEMBL document CHEMBL3865844.
